Would you kindly list koff for each of these binders?
Target: Human BCMA (human) (UniProt Q02223)
Assay: SPR, IgG on chip, huBCMA analyte
Report as: number unit

Item under review: C01_Rd4_0.6nM_C06 (antibody, V domains shown, IgG) VH: EVQLLESGGGLVQPGGSLRLSCAASGFTFSSYPMSWVRQAPGKGLEWVSAIGGSGGSLPYADSVKGRFTISRDNSKNTLYLQMNSLRAEDTAVYYCARYWPMDSWGQGTLVTVSS VL: EIVLTQSPGTLSLSPGERATLSCRASEAVPSTYLAWYQQKPGQAPRLLIYDASSRAPGIPDRFSGSGSGTDFTLTISRLEPEDFAVYYCQQYSAFPLTFGQGTKVEIK . Reported koff? 0.0154 s⁻¹

Same question, C01_Rd4_0.6nM_C09 (antibody, V domains shown, IgG) VH: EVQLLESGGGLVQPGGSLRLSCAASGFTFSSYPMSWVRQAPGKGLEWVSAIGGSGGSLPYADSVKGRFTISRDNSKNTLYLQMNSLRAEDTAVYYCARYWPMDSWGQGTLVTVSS VL: EIVLTQSPGTLSLSPGERATLSCRASQSVSSLFLAWYQQKPGQAPRLLIYDASSRAPGIPDRFSGSGSGTDFTLTISRLEPEDFAVYYCQQYSAWPLTFGQGTKVEIK this time 0.00825 s⁻¹

Same question, P5C1_VHVL (antibody, V domains shown, IgG; also called PC1) VH: EVQLLESGGGLVQPGGSLRLSCAASGFTFSSYPMSWVRQAPGKGLEWVSAIGGSGGSTYYADSVKGRFTISRDNSKNTLYLQMNSLRAEDTAVYYCARYWPMDSWGQGTLVTVSS VL: EIVLTQSPGTLSLSPGERATLSCRASQSVSSTYLAWYQQKPGQAPRLLIYDASSRAPGIPDRFSGSGSGTDFTLTISRLEPEDFAVYYCQQYSTSPLTFGQGTKVEIK this time 0.0692 s⁻¹

Data credit: patent US20190241669A1
